experiment: self-splicing fitness, log relative to wild type (ln ratio); higher = more splicing; Tetrahymena group I intron in knt gene, E. coli kanamycin selection, DiMSum; sequences stand for … in CUCUCU…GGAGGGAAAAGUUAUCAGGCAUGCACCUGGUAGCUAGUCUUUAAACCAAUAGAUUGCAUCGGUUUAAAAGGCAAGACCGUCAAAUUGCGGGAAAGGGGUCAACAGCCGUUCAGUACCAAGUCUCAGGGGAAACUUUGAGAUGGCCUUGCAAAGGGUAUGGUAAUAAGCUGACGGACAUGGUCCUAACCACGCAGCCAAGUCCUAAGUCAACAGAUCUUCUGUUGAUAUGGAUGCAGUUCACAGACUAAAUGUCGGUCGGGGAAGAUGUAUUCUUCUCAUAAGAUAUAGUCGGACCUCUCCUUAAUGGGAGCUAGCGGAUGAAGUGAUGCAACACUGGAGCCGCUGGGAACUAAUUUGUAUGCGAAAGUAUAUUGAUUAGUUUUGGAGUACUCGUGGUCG; settings: 37 °C;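 also: selection with 25 µg/mL kanamycin versus none on LB agar overnight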
Catalogue of sequences with associated self-splicing fitness (ln)
PROPERTY_NAME: self-splicing fitness (ln)

{"columns": ["SEQ_TEXT", "RECORDED_VALUE"],
 "data": [
  ["AACGAGCAAUAUUACGUGCA", -2.01],
  ["UAAAAGCAAUAUUACGUCGA", -0.424],
  ["CCUUAGCAAUAUUACGUCGU", -2.13],
  ["UAUUAGCAAUAUUACGGAUU", -0.699],
  ["UCGAAGCAAUAUUACGUCAU", -2.58],
  ["UACAAGCAAUAUUACGUGGC", -1.94],
  ["CGUGAGCAAUAUUACGUUCG", -3.09],
  ["GUGAAGCAAUAUUACGCCCU", 0.602],
  ["CCCUAGCAAUAUUACGGCAU", -1.94],
  ["GUUCAGCAAUAUUACGAACU", -2.56],
  ["GAUGAGCAAUAUUACGCGAU", -1.57],
  ["UCGCAGCAAUAUUACGUAGA", -0.0374],
  ["UUAUAGCAAUAUUACGGGAU", -3.5],
  ["UCCCAGCAAUAUUACGGAAU", -1.53],
  ["ACAGAGCAAUAUUACGUCGG", -3.58],
  ["GGGUAGCAAUAUUACGCAUU", -0.245],
  ["AUACAGCAAUAUUACGUCAU", -0.888],
  ["UACCAGCAAUAUUACGCGUA", -1.67],
  ["UCCAAGCAAUAUUACGGACG", -2.82],
  ["CUUGAGCAAUAUUACGCUCU", -1.13]
]}

====

assay: self-splicing fitness, log relative to wild type (ln ratio); higher = more splicing; Tetrahymena group I intron in knt gene, E. coli kanamycin selection, DiMSum; sequences stand for … in CUCUCU…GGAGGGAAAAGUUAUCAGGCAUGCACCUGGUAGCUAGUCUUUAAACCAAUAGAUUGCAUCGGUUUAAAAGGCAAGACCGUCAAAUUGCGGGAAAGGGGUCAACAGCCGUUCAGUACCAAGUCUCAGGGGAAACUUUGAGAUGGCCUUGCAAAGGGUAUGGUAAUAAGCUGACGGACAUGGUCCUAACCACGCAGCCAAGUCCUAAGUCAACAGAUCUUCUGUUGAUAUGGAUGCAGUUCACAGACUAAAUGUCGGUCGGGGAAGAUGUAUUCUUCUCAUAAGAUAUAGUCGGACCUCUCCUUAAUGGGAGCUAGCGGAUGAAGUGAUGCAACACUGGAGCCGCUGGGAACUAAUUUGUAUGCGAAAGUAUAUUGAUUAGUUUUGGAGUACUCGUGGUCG; details: 37 °C

{"columns": ["SEQ_TEXT", "self-splicing fitness (ln)"],
 "data": [
  ["CAAAAGCAAUAUUACGGUAC", -1.24],
  ["GAUAAGCAAUAUUACGGGUU", -2.26],
  ["GCAGAGCAAUAUUACGGCAC", -1.42],
  ["CGGAAGCAAUAUUACGUAUC", -2.81],
  ["AGACAGCAAUAUUACGAUUA", -0.971],
  ["CUUGAGCAAUAUUACGUGAC", -1.08],
  ["AGUUAGCAAUAUUACGUGCG", -0.00484],
  ["GCUUAGCAAUAUUACGUGGA", -0.531],
  ["UGACAGCAAUAUUACGGGGA", -1.61],
  ["AAAUAGCAAUAUUACGGUCC", -0.378],
  ["AUUCAGCAAUAUUACGGAGC", -1.71],
  ["AAGUAGCAAUAUUACGUGAC", -1.85],
  ["GCUGAGCAAUAUUACGGUGC", -1.61],
  ["AUGAAGCAAUAUUACGACUG", -0.617],
  ["UAAGAGCAAUAUUACGGCGA", -2.09],
  ["CACAAGCAAUAUUACGGCUG", -0.213],
  ["GCGUAGCAAUAUUACGAUGU", -1.15],
  ["UAUUAGCAAUAUUACGUCCC", -0.713],
  ["CCCAAGCAAUAUUACGAGCA", -2.95],
  ["CGCUAGCAAUAUUACGUUCA", -1.68],
  ["GUGGAGCAAUAUUACGUUCU", -2.38],
  ["GGGAAGCAAUAUUACGGAAC", -2.13],
  ["ACCAAGCAAUAUUACGCAAG", -2.12],
  ["UCUAAGCAAUAUUACGUUUC", -2.3],
  ["GAUGAGCAAUAUUACGCGCG", -0.518],
  ["GUCCAGCAAUAUUACGCGUC", 0.346],
  ["AAUCAGCAAUAUUACGACCA", 0.885],
  ["AAGUAGCAAUAUUACGUAGG", -1.75],
  ["AGCAAGCAAUAUUACGGACA", -0.766],
  ["CGCUAGCAAUAUUACGGCCA", -0.364],
  ["GCGCAGCAAUAUUACGUGGC", -2.36]
]}

Provenance of the data: the supplement of paper PMC7877785
